Target: UniProt P32246
Sequence (P32246 1-355): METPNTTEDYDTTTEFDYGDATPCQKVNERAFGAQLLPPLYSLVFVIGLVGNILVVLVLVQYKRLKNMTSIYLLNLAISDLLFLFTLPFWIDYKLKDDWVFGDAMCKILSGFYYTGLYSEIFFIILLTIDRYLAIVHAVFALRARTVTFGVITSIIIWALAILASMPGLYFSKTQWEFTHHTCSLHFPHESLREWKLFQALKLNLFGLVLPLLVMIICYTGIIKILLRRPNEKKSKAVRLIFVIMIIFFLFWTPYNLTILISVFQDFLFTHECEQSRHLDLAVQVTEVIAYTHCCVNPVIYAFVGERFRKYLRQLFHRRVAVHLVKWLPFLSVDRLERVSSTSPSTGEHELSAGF
Experiment: Method A: calcium flux in CCR1 transfected cells (Fluo-4 NW, FLIPR TETRA), block of the CCR1/MIP-1α interaction
Assay type: cell-based
Details: Method A: Fluo-4 NW, MIP-1 alpha at EC80
metric: IC50 (nM)

Solved entries:
CCCC(NC(=O)c1cncc2c1cnn2-c1ccc(F)cc1)c1ccnc(Br)c1 (stereo not drawn)	0.4
CNS(=O)(=O)c1ccc(CNC(=O)c2cncc3c2cnn3-c2ccc(F)cc2)c(Cl)c1	0.2
COCCNS(=O)(=O)c1ccc(CNC(=O)c2cncc3c2cnn3-c2ccc(F)cc2)cn1	9

P. CCCC(NC(=O)c1cncc2c1cnn2-c1ccc(Cl)cc1)c1ccc(S(C)(=O)=O)nc1 (stereo not drawn)
Q. CN(c1ccc(CNC(=O)c2cncc3c2cnn3-c2ccc(F)cc2)cn1)S(C)(=O)=O
Min IC50? P | Q Record your answer as the label of the chosen record. P
